Hey, just so you know, these numbers are from patent US10807944B2.

Biological target: HDAC1 (Homo sapiens (Human), UniProt Q13547)
Sequence (Q13547 whole entry): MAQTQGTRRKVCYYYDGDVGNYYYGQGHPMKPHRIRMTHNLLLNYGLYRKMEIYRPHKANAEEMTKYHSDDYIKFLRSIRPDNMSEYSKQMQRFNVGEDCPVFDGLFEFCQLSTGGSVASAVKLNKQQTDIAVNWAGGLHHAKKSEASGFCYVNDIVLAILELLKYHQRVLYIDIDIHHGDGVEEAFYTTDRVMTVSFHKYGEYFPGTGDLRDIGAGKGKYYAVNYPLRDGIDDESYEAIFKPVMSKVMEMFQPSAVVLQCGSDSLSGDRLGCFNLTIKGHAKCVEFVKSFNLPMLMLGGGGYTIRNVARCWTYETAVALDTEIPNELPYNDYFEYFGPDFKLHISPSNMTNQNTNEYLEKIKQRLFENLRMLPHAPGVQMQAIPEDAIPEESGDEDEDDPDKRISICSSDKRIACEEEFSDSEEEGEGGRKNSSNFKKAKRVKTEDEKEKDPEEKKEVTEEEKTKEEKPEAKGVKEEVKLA
Experiment: HDAC1 in vitro inhibition, dose response
Assay type: biochemical
Details: Table 2; read-out: HDAC 1 IC50
The following compounds are shown together with reported IC50 values.
test_readout: IC50

- CC(C)NNC(=O)c1ccccc1 [RLS2-185, N′-isopropylbenzohydrazide]: > 50 µM
- CCCCNNC(=O)c1ccccc1 [RLS2-125, N′-butylbenzohydrazide]: > 50 µM
- CCCCNNC(=O)c1ccc(OC)c(OC)c1 [RLS3-20]: > 50 µM
- CCCCNNC(=O)c1ccccc1-c1ccccc1 [RLS3-4, N′-butylbiphenyl-2-carbohydrazide]: > 50 µM
- O=C(NNCCCC1CCCC1)c1ccc(Br)cc1: > 50 µM
- CCCCNNC(=O)c1cccc(OCC)c1 [RLS2-303, N′-butyl-3-ethoxybenzohydrazide]: > 50 µM
